B1: INTS3 (parent)
chain: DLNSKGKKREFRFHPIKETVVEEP

Variants of: B1
ASSAY NAME: protein stability index of a GFP-peptide fusion (GPS, HEK-293T) (PSI 1-6); higher = more stable;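 note: lentivirally expressed fusions sorted by FACS into six bins by GFP to DsRed ratio, PSI derived from sequencing read proportions per bin multiplied by bin number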
MEASUREMENT PARAMETERS: c terminus: a fixed tail appended
# protein stability index per entry
VALUE TYPE: protein stability index

SEQUENCE INPUT | ENDPOINT VALUE
DLNSKGKKREFRFHPIGETVVEEP [K17G] | 2.91
DLNSKGKKREFRFHPIKETVVEEL [P24L] | 2.35
DLNSKGKKMEFRFHPIKETVVEEP [R9M] | 1.78
DLNSKGKKREFRFHPIKSTVVEEP [E18S] | 1.94
DLNSKGKKREFRFHPIKETLVEEP [V20L] | 1.99
DLNSKGKKREFRFHPIKETVVIEP [E22I] | 2.21
DLNSKGKKRVFRFHPIKETVVEEP [E10V] | 1.3
DLNSKGKKREFRFHPIKEEVVEEP [T19E] | 2.29
DLNSKGKKREFRFHPIRETVVEEP [K17R] | 1.69
DLNSKGKKREFRFHPICETVVEEP [K17C] | 2.67
DLNSKGKKREFRFHPIKETVVELP [E23L] | 2.19
